test: physchem; settings: 25% hpbcd in deionized water, pH 9, Gelöstes Dantrolen-Natrium
READOUT KIND: solubility thermodynamic at 24 h (mg/mL)
Write it as a number; the unit mg/mL goes unstated.

Prompt: Bench note: what solubility thermodynamic at 24 h did O=C1CN(/N=C/c2ccc(-c3ccc([N+](=O)[O-])cc3)o2)C(O)=N1 [Dantrolen-Natrium] show?
Response: 16

---

test: physchem; details: water, 25% hpbcd, 2% glycerol, pH 9, organic solvent or mixture, Gelöstes Dantrolen-Natrium
READOUT KIND: solubility thermodynamic at 24 h (µg/mL)
Write it as a number; the unit µg/mL goes unstated.

Prompt: Could you share which solubility thermodynamic at 24 h value was measured for O=C1CN(/N=C/c2ccc(-c3ccc([N+](=O)[O-])cc3)o2)C(O)=N1 [Dantrolen-Natrium] ?
Response: 9500

These entries and their values trace back to patent EP3360539A1.
